Molecular target: c-kit mutant D816V (Homo sapiens, UniProt P10721, D816V/DEL694-753)
Construct: residues 551-934, kinase insertion domain residues 694-753 deleted; 6x-histidine (N); made in house; host or cells: E. coli Arctic Express (DE3) RIL (Stratagene)
Sequence (P10721 with tags, fused parts or gaps DEL694-753/D816V): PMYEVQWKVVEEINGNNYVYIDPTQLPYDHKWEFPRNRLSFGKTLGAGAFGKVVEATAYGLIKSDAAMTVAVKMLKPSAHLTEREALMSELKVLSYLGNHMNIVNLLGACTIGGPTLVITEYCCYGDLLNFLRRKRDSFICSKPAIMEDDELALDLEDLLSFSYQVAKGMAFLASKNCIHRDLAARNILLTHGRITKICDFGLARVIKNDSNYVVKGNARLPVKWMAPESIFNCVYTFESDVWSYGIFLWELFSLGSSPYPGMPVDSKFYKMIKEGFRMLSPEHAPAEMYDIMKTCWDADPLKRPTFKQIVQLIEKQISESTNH
Experiment: c-Kit mutant D816V biochemical assay, AlphaScreen
Settings: c-kit D816V biochemical inhibitory activity; read-out: Biochemical activity (IC50 μM) Kit D816V
Experimental: Compounds to be tested were dissolved in DMSO to a concentration of 20 mM. These were diluted 30 μl into 120 μl of DMSO (4 mM) and 1 μl was added to an assay plate. These were then serially diluted 1:3 (50 μl to 100 μl DMSO) for a total of 8 points. […] The samples were incubated for 60 minutes at room temperature and the signal per well was read on EnVision reader. […]
A collection of compounds and their measured IC50
property_measured: IC50

INSERT INTO results (compound, measured) VALUES
  ('C[C@H]1CN(c2ncnc3[nH]c(-c4ccncc4)cc23)CCN1C(=O)Nc1ccc(Cl)cc1 [P-0045]', '1 to 10 µM'),
  ('COc1ccc(S(=O)(=O)NC2CCN(c3ncnc4[nH]ccc34)CC2)cc1 [P-0540]', '10 to 200 µM'),
  ('C[C@@H]1CN(c2ncnc3[nH]c(-c4ccncc4)cc23)CCN1C(=O)Nc1ccc(OC(F)(F)F)cc1 [P-0063]', '0.0001 to 1 µM'),
  ('COc1cccc([C@H](C)NC(=O)N2C3CCC2CN(c2ncnc4cc(-c5ccc(F)cc5)sc24)C3)c1 [P-0567]', '0.0001 to 1 µM'),
  ('CCOc1cccc(-c2[nH]c(C3CCN(c4ncnc5[nH]c(-c6ccnc(OC)c6)cc45)CC3)nc2C)c1 [P-0714]', '0.0001 to 1 µM'),
  ('O=C(NCc1ccc(Cl)cc1)N1CCN(c2ncnc3[nH]c(-c4ccc(Cl)cc4)cc23)CC1 [P-0212]', '0.0001 to 1 µM'),
  ('COc1ccc(S(=O)(=O)Nc2ccc(-c3ncnc4[nH]c(C)cc34)cc2)cc1F [P-0325]', '1 to 10 µM'),
  ('c1nc(-c2cnc(C3CC3)nc2)c2cc(-c3cnc(C4CC4)nc3)[nH]c2n1 [P-0384]', '10 to 200 µM'),
  ('COc1cccc([C@H](C)NC(=O)N2CCN(c3ncnc4[nH]c(-c5cnn(C)c5)cc34)CC2)c1 [P-0093]', '0.0001 to 1 µM'),
  ('COc1cccc([C@@H](C)NC(=O)N2CCN(c3ncnc4[nH]c(-c5ccc(Cl)cc5)cc34)C[C@H]2C)c1 [P-0025]', '10 to 200 µM'),
  ('Cc1ccc(S(=O)(=O)Nc2ccc(-c3ncnc4[nH]c(C)cc34)c(F)c2)cc1 [P-0293]', '0.0001 to 1 µM'),
  ('C[C@@H]1CN(c2ncnc3[nH]c(-c4ccncc4)cc23)CCN1C(=O)NCc1ccc(Cl)cc1 [P-0064]', '0.0001 to 1 µM'),
  ('Cc1cc2c(-c3ccc(NS(=O)(=O)c4ccc5oncc5c4)cc3)ncnc2[nH]1 [P-0303]', '10 to 200 µM'),
  ('Cc1cc2c(N3CCN(C(=O)N[C@@H](C)c4cccc(OC(F)F)c4)[C@H](C)C3)ncnc2[nH]1 [P-0648]', '0.0001 to 1 µM'),
  ('O=C(Nc1ccc(F)cc1)N1CCN(c2ncnc3[nH]ccc23)CC1 [P-0183]', '10 to 200 µM'),
  ('Cc1cc2c(-c3ccc(NS(=O)(=O)c4ccc5c(c4)CCO5)cc3)ncnc2[nH]1 [P-0307]', '1 to 10 µM'),
  ('CC1(C)C=C(c2cc3c(N4CCC(NS(=O)(=O)c5ccc(OC(F)(F)F)cc5)CC4)ncnc3[nH]2)CC(C)(C)N1 [P-0662]', '1 to 10 µM'),
  ('COCCOc1cc2ncnc(-c3ccc(NS(=O)(=O)c4ccc(OC)cc4)cc3F)c2cc1OCCOC [P-0262]', '0.0001 to 1 µM'),
  ('CS(=O)(=O)Nc1cccc(-c2cc3c(N4CCN(C(=O)Nc5ccc(OC(F)(F)F)cc5)CC4)ncnc3[nH]2)c1 [P-0119]', '1 to 10 µM'),
  ('[2H]C([2H])([2H])S(=O)(=O)Nc1ccc(-c2ncnc3[nH]c(-c4ccc(F)cc4)cc23)c(F)c1 [P-0368]', '0.0001 to 1 µM'),
  ('O=S(=O)(NC1CCN(c2ncnc3[nH]c(-c4ccc(Cl)cc4)cc23)CC1)c1ccc(F)cc1 [P-0481]', '10 to 200 µM'),
  ('Cc1n[nH]c2ncnc(-c3ccc(NS(=O)(=O)c4ccc(C(F)(F)F)cc4)cc3)c12 [P-0438]', '0.0001 to 1 µM'),
  ('COc1ccc(S(=O)(=O)Nc2ccc(-c3ncnc4[nH]nc(C)c34)cc2)cc1 [P-0444]', '0.0001 to 1 µM');
